System: NOMO1
ASSAY PROTOCOL: AUC of viability dose-response curve (% viability x log10 dose units); higher = less sensitive
CONDITION PARAMETERS: RPMI 5 mM glucose + 10% FBS; 48 h
MEASUREMENT NAME: AUC of viability dose-response curve
# respond with the number and nothing more

// recorded AUC of viability dose-response curve for C[C@@]1(C(=O)Nc2ccc(F)nc2)CCCN1c1nc(Nc2cc(C3CC3)[nH]n2)c2cccn2n1 : 417

Reported AUC of viability dose-response curve of C[C@@H]1C[C@H]2[C@@H]3\C=C(C)/C4=C/C5=C(C[C@]4(C)[C@H]3[C@@H](O)C[C@]2(C)[C@@]1(O)C(=O)CO)C=N[N]5C6=CC=CC=C6 : 446

Memo: Cc1nc(Nc2n[nH]c3c2CN(C(=O)N[C@H](CN(C)C)c2ccccc2)C3(C)C)c2sccc2n1 , reported AUC of viability dose-response curve: 277

Lab note: measured AUC of viability dose-response curve of CNC(=O)CN1CCC(Oc2cc3c(Nc4cccc(Cl)c4F)ncnc3cc2OC)CC1 was 302

The recorded AUC of viability dose-response curve for CC[C@]1(O)C[C@@H]2CN(CCc3c([nH]c4ccccc34)[C@@](C(=O)OC)(c3cc4c(cc3OC)N(C)[C@H]3[C@@](O)(C(N)=O)[C@H](O)[C@]5(CC)C=CCN6CC[C@]43[C@@H]65)C2)C1 is 259

This collection of values is drawn from the supplement of paper PMC11451515.
